- Species: Homo sapiens
- test details: Inhibition of pyruvate kinase (unknown origin) at 5 uM using 2-PG relative to control
inhibition listing for selected compounds.
Report the value in % with no unit label.

Reference set, count: 3
>>> reported_value("O=c1c2c(O)cccc2oc2cc(NS(=O)(=O)c3ccc(Cl)cc3)c(O)c(O)c12")
15
>>> reported_value("O=c1c2c(O)cccc2oc2cc(NS(=O)(=O)c3ccc(C4CCCCC4)cc3)c(O)c(O)c12")
9
>>> reported_value("O=c1c2c(O)cccc2oc2cc(NS(=O)(=O)c3ccc(N4CCCCC4)cc3)c(O)c(O)c12")
5

Next item in the queue.
Problem: Indicate the recorded inhibition value for this compound: O=c1c2c(O)cccc2oc2cc(NS(=O)(=O)c3ccc(F)cc3)c(O)c(O)c12
Solution: 1
